- assay target: Recombinant human NK3 (hNK3) receptor (Homo sapiens, UniProt P29371)
- Construct: expressed in transfected cells
- Sequence (P29371 whole entry): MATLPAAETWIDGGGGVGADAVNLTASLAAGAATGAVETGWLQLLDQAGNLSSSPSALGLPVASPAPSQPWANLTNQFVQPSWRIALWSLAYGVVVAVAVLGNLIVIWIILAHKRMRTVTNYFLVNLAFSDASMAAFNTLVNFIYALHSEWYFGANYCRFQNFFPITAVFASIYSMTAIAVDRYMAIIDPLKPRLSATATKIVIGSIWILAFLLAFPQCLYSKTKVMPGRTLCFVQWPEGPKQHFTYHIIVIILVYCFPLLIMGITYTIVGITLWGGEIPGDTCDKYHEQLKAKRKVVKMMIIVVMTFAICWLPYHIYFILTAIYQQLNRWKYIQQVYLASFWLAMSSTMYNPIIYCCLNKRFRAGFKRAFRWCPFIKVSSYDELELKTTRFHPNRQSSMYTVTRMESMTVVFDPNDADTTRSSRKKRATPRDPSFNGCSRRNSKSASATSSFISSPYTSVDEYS
- procedure summary: NK3 receptor binding, [3H]SR142801 displacement, membrane preparations
- run parameters: second value of the cell NK1/NK3; read-out: pKi NK3 (converted)
measurement name: Ki (nM)

CN(C(=O)C(C)(C)c1cc(C(F)(F)F)cc(C(F)(F)F)c1)c1cnc(N2C[C@@H](O)C[C@H]2CO)cc1-c1cccc(Cl)c1Cl [Example 253] ... 3.16
CN(C(=O)C(C)(C)c1cc(C(F)(F)F)cc(C(F)(F)F)c1)c1cnc(N2CC[C@H](O)[C@H]2CO)cc1-c1ccc(Cl)c(Cl)c1 [Example 268] ... 2.4
CN(C(=O)C(C)(C)c1cc(C(F)(F)F)cc(C(F)(F)F)c1)c1cnc(N2C[C@@H](O)C[C@H]2CO)cc1-c1cccnc1Cl [Example 254] ... 3.09
Cc1ccncc1-c1cc(N(C)CCO)ncc1N(C)C(=O)C(C)(C)c1cc(C(F)(F)F)cc(C(F)(F)F)c1 [Example 294] ... 4.27
CN(C(=O)C(C)(C)c1cc(C(F)(F)F)cc(C(F)(F)F)c1)c1cnc(N2CCC[C@H]2CO)cc1-c1ccccc1F [Example 282] ... 2.24
CN(C(=O)C(C)(C)c1cc(C(F)(F)F)cc(C(F)(F)F)c1)c1cnc(N2CC[C@H](O)[C@H]2CO)cc1-c1cccc(Cl)c1 [Example 269] ... 3.55
CN(C(=O)C(C)(C)c1cc(C(F)(F)F)cc(C(F)(F)F)c1)c1cnc(N2CCC[C@H]2CO)cc1-c1ccc(Cl)cc1 [Example 287] ... 7.41
CN(C(=O)C(C)(C)c1cc(C(F)(F)F)cc(C(F)(F)F)c1)c1cnc(N2C[C@@H](O)C[C@H]2CO)cc1-c1ccc(F)cc1C=O [Example 239] ... 1.48

I = Cc1ccncc1-c1cc(N(CCO)CCO)ncc1N(C)C(=O)C(C)(C)c1cc(C(F)(F)F)cc(C(F)(F)F)c1 [Example 293]
II = CN(C(=O)C(C)(C)c1cc(C(F)(F)F)cc(C(F)(F)F)c1)c1cnc(N2C[C@@H](O)C[C@H]2CO)cc1-c1ccccc1C#N [Example 245]
III = CN(C(=O)C(C)(C)c1cc(C(F)(F)F)cc(C(F)(F)F)c1)c1cnc(N2C[C@@H](O)C[C@H]2CO)cc1-c1ncccc1Cl [Example 256]
IV = Cc1ccc(-c2cc(N3CC[C@H](O)[C@H]3CO)ncc2N(C)C(=O)C(C)(C)c2cc(C(F)(F)F)cc(C(F)(F)F)c2)cc1 [Example 267]
Request: Sequence the entries by Ki, beginning with the highest number. Lab note: record answer as labels in requested order.
Response: IV, III, I, II
(IV: 28.8 nM, III: 20 nM, I: 1.62 nM, II: 1.1 nM)
